Source of measurements: patent US20120276102A1

tgt: human IL-21R expressed on cells (human, UniProt Q9HBE5 20-538)
Sequence (Q9HBE5 20-538 limits assumed): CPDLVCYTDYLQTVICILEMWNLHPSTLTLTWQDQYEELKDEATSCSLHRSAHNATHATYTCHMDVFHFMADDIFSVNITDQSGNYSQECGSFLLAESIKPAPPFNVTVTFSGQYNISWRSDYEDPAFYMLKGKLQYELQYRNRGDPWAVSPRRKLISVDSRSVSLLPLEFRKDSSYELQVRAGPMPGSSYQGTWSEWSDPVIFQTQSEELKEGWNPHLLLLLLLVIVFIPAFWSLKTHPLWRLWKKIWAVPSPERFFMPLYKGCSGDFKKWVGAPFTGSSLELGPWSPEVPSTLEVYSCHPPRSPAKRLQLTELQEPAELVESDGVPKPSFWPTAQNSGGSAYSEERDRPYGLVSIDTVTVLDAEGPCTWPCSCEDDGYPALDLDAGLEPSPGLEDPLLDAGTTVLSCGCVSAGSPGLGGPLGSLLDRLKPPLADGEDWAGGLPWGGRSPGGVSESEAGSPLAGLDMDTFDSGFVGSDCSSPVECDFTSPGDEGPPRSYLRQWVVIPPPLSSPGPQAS
experiment description: cell-based or functional assay
observable: Human IL-21R-BaF3 Proliferation IC50 (nM)

>  <binder>
AbQ (antibody, human IgG1, V domains shown, CDR3 graft, residue limits derived as for m29; also called VH3/VL2; VH3DM/VL2) VH: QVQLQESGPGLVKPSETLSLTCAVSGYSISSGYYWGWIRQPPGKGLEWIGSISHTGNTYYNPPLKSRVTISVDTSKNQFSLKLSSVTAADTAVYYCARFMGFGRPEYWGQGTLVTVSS VL: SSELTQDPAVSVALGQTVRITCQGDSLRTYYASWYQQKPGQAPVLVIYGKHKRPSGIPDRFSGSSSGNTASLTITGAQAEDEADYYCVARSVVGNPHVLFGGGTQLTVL

>  <observable>
Human IL-21R-BaF3 Proliferation IC50

>  <readout number>
0.68

$$$$
>  <binder>
AbE (antibody, IgG1, V domains shown, As for AbA: IgG1/lambda, CDR3 graft, residue limits derived; also called VHP/VL14) VH: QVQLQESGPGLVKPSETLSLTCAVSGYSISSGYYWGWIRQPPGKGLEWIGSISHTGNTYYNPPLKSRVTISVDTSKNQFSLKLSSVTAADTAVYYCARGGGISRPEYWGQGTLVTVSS VL: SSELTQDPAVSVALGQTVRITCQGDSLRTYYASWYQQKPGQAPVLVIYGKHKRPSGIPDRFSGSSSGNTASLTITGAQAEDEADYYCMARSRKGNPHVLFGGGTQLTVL

>  <observable>
Human IL-21R-BaF3 Proliferation IC50

>  <readout number>
0.56

$$$$
>  <binder>
AbS (antibody, V domains shown, CDR3 graft, residue limits derived as for m29; also called VHP/VL6; VHPTM/VL6) VH: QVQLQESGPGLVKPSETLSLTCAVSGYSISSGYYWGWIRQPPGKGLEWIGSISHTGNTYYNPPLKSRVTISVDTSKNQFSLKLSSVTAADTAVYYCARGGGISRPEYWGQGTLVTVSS VL: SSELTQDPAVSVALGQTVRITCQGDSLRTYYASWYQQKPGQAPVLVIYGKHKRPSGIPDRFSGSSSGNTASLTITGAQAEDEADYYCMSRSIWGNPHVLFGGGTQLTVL

>  <observable>
Human IL-21R-BaF3 Proliferation IC50

>  <readout number>
1.53

$$$$
>  <binder>
AbC (antibody, IgG1, V domains shown, As for AbA: IgG1/lambda, CDR3 graft, residue limits derived; also called VHP/VL11) VH: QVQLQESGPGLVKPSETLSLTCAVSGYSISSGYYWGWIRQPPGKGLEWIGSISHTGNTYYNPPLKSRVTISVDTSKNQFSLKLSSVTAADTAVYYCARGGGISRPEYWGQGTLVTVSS VL: SSELTQDPAVSVALGQTVRITCQGDSLRTYYASWYQQKPGQAPVLVIYGKHKRPSGIPDRFSGSSSGNTASLTITGAQAEDEADYYCSSRSRHGNPHVLFGGGTQLTVL

>  <observable>
Human IL-21R-BaF3 Proliferation IC50

>  <readout number>
0.82

$$$$
>  <binder>
AbJ (antibody, IgG1, V domains shown, As for AbA: IgG1/lambda, CDR3 graft, residue limits derived; also called VH3/VLP) VH: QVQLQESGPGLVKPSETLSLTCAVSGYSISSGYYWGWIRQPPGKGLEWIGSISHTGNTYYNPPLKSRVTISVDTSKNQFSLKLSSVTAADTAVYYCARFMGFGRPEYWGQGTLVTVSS VL: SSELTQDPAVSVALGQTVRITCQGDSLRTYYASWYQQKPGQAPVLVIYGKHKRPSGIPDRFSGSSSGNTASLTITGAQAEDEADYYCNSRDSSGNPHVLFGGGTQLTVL

>  <observable>
Human IL-21R-BaF3 Proliferation IC50

>  <readout number>
0.65

$$$$
>  <binder>
AbT (antibody, human IgG1, V domains shown, CDR3 graft, residue limits derived as for m29; also called VHP/VL9; VHPTM/VL9) VH: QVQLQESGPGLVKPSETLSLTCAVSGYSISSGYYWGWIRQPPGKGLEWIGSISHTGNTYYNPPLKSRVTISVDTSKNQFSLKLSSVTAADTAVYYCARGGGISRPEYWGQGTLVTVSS VL: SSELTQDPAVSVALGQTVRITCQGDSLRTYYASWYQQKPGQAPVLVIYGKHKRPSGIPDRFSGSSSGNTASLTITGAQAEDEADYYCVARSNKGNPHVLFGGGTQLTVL

>  <observable>
Human IL-21R-BaF3 Proliferation IC50

>  <readout number>
0.67

$$$$
>  <binder>
AbD (antibody, IgG1, V domains shown, As for AbA: IgG1/lambda, CDR3 graft, residue limits derived; also called VHP/VL13) VH: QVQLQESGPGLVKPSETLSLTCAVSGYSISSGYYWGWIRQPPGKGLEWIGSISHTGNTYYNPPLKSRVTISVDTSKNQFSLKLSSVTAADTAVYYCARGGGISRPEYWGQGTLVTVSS VL: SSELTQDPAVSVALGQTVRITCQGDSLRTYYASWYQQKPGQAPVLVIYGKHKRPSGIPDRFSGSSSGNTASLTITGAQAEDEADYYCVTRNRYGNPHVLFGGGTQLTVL

>  <observable>
Human IL-21R-BaF3 Proliferation IC50

>  <readout number>
0.91

$$$$
>  <binder>
AbO (antibody, human IgG1, V domains shown, CDR3 graft, residue limits derived as for m29; also called VHP/VL16; VHPTM/VL16) VH: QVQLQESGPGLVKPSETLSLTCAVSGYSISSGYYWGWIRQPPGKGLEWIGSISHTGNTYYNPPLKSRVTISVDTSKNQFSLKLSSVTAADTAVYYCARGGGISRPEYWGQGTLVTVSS VL: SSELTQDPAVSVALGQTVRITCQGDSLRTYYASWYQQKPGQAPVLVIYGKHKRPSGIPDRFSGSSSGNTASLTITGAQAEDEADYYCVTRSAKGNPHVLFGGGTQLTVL

>  <observable>
Human IL-21R-BaF3 Proliferation IC50

>  <readout number>
0.52

$$$$
>  <binder>
AbL (antibody, IgG1, V domains shown, As for AbA: IgG1/lambda, CDR3 graft, residue limits derived; also called VH3/VL13) VH: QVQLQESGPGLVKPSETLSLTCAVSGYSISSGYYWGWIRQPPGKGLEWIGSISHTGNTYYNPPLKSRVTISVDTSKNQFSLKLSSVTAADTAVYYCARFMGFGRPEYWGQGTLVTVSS VL: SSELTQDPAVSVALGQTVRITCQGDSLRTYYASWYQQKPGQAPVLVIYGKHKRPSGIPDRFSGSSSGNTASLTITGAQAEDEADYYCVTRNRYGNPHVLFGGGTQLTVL

>  <observable>
Human IL-21R-BaF3 Proliferation IC50

>  <readout number>
0.68

$$$$
>  <binder>
AbU (antibody, human IgG1, V domains shown, CDR3 graft, residue limits derived as for m29; also called VHP/VL25; VHPTM/VL25) VH: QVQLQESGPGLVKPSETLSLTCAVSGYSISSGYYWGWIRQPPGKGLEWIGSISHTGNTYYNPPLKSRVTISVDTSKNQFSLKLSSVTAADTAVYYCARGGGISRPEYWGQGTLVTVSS VL: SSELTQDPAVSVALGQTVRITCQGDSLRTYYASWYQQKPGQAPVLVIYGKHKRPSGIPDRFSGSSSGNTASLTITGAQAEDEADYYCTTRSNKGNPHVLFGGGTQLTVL

>  <observable>
Human IL-21R-BaF3 Proliferation IC50

>  <readout number>
0.73

$$$$
